Task for the reader: assign each of the following sequences its reported switch fluorescence ratio.
System: ATP;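 further: ATP exposure 15 min at 22 °C before imaging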
MEASUREMENT DESCRIPTION: switch fluorescence ratio, 500 uM ATP over buffer (Cy3 cluster intensity, sum of 5 cycles each) (fold (ratio)); higher = stronger signal-on switching upon ATP binding; sequences stand for … in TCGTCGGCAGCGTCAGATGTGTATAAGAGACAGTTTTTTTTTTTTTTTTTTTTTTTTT…TC
DETAILS: aptamer strand: ATP DNA aptamer (quencher-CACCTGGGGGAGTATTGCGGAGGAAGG + anchor), 100 nM annealed; ATP concentration: 500 uM
// no unit string in output, number only

Query string: I am curious: what switch fluorescence ratio value has been reported for "TTTATCGGGA" ?
Result string: 0.978

Query string: Subsequent entry: "TTGTGGGGCT"
Result string: 0.997

Query string: Entry "TTTACCGGAG" please
Result string: 1.15

Query string: Next sequence: "GTGGGAAAGG"
Result string: 0.971

Query string: Cool, now "AGTATGTTTT"
Result string: 0.995

Query string: // next record "TTTACAATGG"
Result string: 1.06

Query string: Note, next up: "CGCGGGGTCC"
Result string: 1.05

Query string: What about "GCCGGCTTTG" ?
Result string: 1.03

Query string: Try "TTGGAAGAGT" next.
Result string: 0.994

Query string: Queued: "CGTGTTGGAC"
Result string: 1.02

Query string: Another sequence to look at: "AATGTGTCA"
Result string: 1.01

* * *

Test system: ATP;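 further: ATP exposure 15 min at 22 °C before imaging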
MEASUREMENT DESCRIPTION: switch fluorescence ratio, 500 uM ATP over buffer (Cy3 cluster intensity, sum of 5 cycles each) (fold (ratio)); higher = stronger signal-on switching upon ATP binding; sequences stand for … in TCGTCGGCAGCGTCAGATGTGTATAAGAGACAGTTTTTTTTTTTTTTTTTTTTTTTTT…TC
DETAILS: aptamer strand: ATP DNA aptamer (quencher-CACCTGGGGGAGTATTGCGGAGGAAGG + anchor), 100 nM annealed; ATP concentration: 500 uM
REPORTED ENDPOINT: switch fluorescence ratio
Keep it simple and answer with nothing but the number.

Query string: What reported switch fluorescence ratio corresponds to "CGGTGCTTGT" on ATP?
Result string: 1.02

Query string: Okay, and "GTTGATGTAT" ?
Result string: 0.987

Query string: Now consider "GTGAAGATTG" and answer again.
Result string: 1.02

Query string: Also check "GGGAGGCCGT"
Result string: 1.04

Query string: Now try "TTTGCCGCGG" .
Result string: 0.995

Query string: Please do the same for "ACGGCATTAT" as well.
Result string: 1.16

Query string: Another sequence to check: "GCAGGCGGGC"
Result string: 0.991

Query string: Now consider "ATTAGCGTTT" and answer again.
Result string: 0.977

Query string: For "AAGGCAACGC" then?
Result string: 0.98

Query string: Same question for "CTGTGGGAAG" please.
Result string: 0.995

Query string: Next record, please: "ATTCATTTTT"
Result string: 1

Query string: Ok, now "ATGATGGTTT"
Result string: 1.02

Query string: What would you report for "ATTTGAACGT" ?
Result string: 0.966

Query string: And then "GTGTCGAAGG" , what is it?
Result string: 0.976

Query string: Would you kindly repeat that for "TTGGTTTTCG" ?
Result string: 0.973

Query string: Next sequence up: "AAAGGGGGT"
Result string: 1.01

Query string: Follow-up entry: "TCAAGGCAA"
Result string: 1.8

Query string: Record: "TTGAGAGGGG"
Result string: 0.981

Query string: Please answer likewise for "TATCTGGCTT"
Result string: 1.02

Query string: Record: "AAGGCCGGGT"
Result string: 1.05

Query string: How about this sequence: "GGGTCAGTTT"
Result string: 1.04

Query string: Same question, "GGGTTTGAGC" this time
Result string: 0.981

Query string: "CCCGGGGTTT" , same question.
Result string: 1.31

Query string: Follow-up entry: "TTGTGGCTTA"
Result string: 0.98

Query string: What do you get for "GGGAGAACGG" ?
Result string: 0.977

Query string: Could you do the same for "TGCATGTGTC" , please?
Result string: 0.99

Query string: Another sequence: "ATCAGGGTGG"
Result string: 0.987

Query string: // same read-out, input: "TTGGCATTTA"
Result string: 1.03

Query string: Here is the next sequence: "CGTTGGGCTC"
Result string: 1.02

Query string: Also need "TTGGGAGGGA" , thanks.
Result string: 1

Query string: Then "GCAGGGAGTT" ?
Result string: 0.966

* * *

Test system: ATP;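 further: ATP exposure 15 min at 22 °C before imaging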
MEASUREMENT DESCRIPTION: switch fluorescence ratio, 500 uM ATP over buffer (Cy3 cluster intensity, sum of 5 cycles each) (fold (ratio)); higher = stronger signal-on switching upon ATP binding; sequences stand for … in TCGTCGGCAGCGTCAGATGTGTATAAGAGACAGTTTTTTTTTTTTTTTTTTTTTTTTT…TC
DETAILS: aptamer strand: ATP DNA aptamer (quencher-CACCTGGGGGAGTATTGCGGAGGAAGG + anchor), 100 nM annealed; ATP concentration: 500 uM
REPORTED ENDPOINT: switch fluorescence ratio
# output: bare number, no unit

Query string: Hello, I am looking for reported switch fluorescence ratio with ATP for "AGTATGTATG" . Could you help?
Result string: 1.02

Query string: Another: "TAGATGGCGG"
Result string: 1

Query string: Also need "GCCGAAGTCG" , thanks.
Result string: 1.02

Query string: // query: "CAGGGGTGGT"
Result string: 1.01

Query string: Same read-out for "CAGTCCGGGC" ?
Result string: 0.991

Query string: Further, for "GTGGGAGGGA" ?
Result string: 1.02

Query string: # iterate: "CGGGCAACGT"
Result string: 1.02

Query string: Check "AAGTGGGTTC" too.
Result string: 0.982

* * *

Tested on: ATP;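 further: ATP exposure 15 min at 22 °C before imaging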
MEASUREMENT DESCRIPTION: switch fluorescence ratio, 500 uM ATP over buffer (Cy3 cluster intensity, sum of 5 cycles each) (fold (ratio)); higher = stronger signal-on switching upon ATP binding; sequences stand for … in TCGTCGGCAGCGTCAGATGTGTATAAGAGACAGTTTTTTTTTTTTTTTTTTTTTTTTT…TC
DETAILS: aptamer strand: ATP DNA aptamer (quencher-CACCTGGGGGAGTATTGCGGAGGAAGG + anchor), 100 nM annealed; ATP concentration: 500 uM
Decide using switch fluorescence ratio: a value greater than or equal to 1 is 1, a smaller one is 0.

Query string: Is switch fluorescence ratio at least 1? Consider "TAGGAAATGT"
Result string: 1

Query string: Next record, please: "GGTGGGATGA"
Result string: 0

Query string: Please do the same for "GTATGACGTA" as well.
Result string: 0

Query string: Further, for "TTGCAGGTTT" ?
Result string: 1

Query string: "TGTTGCGTTG" , same question.
Result string: 0

Query string: Okay, and "TCTCGGGGCT" ?
Result string: 0

* * *

System: ATP;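 further: ATP exposure 15 min at 22 °C before imaging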
MEASUREMENT DESCRIPTION: switch fluorescence ratio, 500 uM ATP over buffer (Cy3 cluster intensity, sum of 5 cycles each) (fold (ratio)); higher = stronger signal-on switching upon ATP binding; sequences stand for … in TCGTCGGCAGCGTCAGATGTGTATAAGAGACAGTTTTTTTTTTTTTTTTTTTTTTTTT…TC
DETAILS: aptamer strand: ATP DNA aptamer (quencher-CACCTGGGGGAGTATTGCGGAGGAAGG + anchor), 100 nM annealed; ATP concentration: 500 uM
Threshold rule: switch fluorescence ratio greater than or equal to 1 is condition met; below that, condition not met.

Query string: Given the entry "GTATAAGGAT" , answer whether its switch fluorescence ratio meets or surpasses 1.
Result string: condition met

Query string: Now the sequence "TGGGACCCGT"
Result string: condition met

Query string: And the next one, "TGAGGGAGGC" ?
Result string: condition met

Query string: What about this sequence? "TGGGCAATGG"
Result string: condition met

Query string: Now consider "GGAAGTGTGT" and answer again.
Result string: condition not met

Query string: Next sequence up: "ATTTACTTGT"
Result string: condition met

Query string: Let us now turn to "ACAGATGGGA"
Result string: condition met

Query string: # repeat for "ACAGTATCGG"
Result string: condition met

Query string: What would you report for "ACCCTGGCAA" ?
Result string: condition met

Query string: Okay, and "CCTTTGGTTA" ?
Result string: condition met

Query string: Let us now turn to "GCTGGAAGTA"
Result string: condition not met

Query string: Request: "GGTGACTGGG"
Result string: condition not met

Query string: Same question, "TTCGATTCGA" this time
Result string: condition not met

Query string: Moving on to the next sequence: "GTTTACCTTC"
Result string: condition met

Query string: Please give the result for "CCATATCGAC" too.
Result string: condition met

Query string: Similarly, "TTTTATCACT" ?
Result string: condition met

Query string: Follow-up item: "TGGTGGGTTC"
Result string: condition met

Query string: Same question, "GTTTTTACCT" this time
Result string: condition met

Query string: Same lookup for "AGCAGGGGTA" , please.
Result string: condition met

Query string: Next sequence: "CAGCGTTCAC"
Result string: condition met

Query string: Record: "GAATACGGGG"
Result string: condition met

Query string: And then "TCTAATACGG" , what is it?
Result string: condition met

Query string: Can you check "GCACTAGGGG" next?
Result string: condition met

Query string: Follow-up entry: "CTATGCAGTG"
Result string: condition met

Query string: Now give it for "TGATTGGTCA" too.
Result string: condition not met

Query string: Try this sequence next: "CCCATTGGGG"
Result string: condition met

Query string: Now this one: "GGAGTACAAA"
Result string: condition met

Query string: Consider next the sequence "GGTGCAATGA" in the same way.
Result string: condition met

Query string: // same read-out, input: "GTAATACCAA"
Result string: condition met

Query string: Repeat with "TTACTACTTT"
Result string: condition met
